- Tested on: CCRIS mutagenicity, Ames/micronucleus/aberration tests
- procedure text: CCRIS mutagenicity studies
- assay context: Test System: AMES SALMONELLA TYPHIMURIUM; Strain/Indicator: TA104; Metabolic Activation: RAT, LIVER, S-9, AROCLOR 1254; Method: STANDARD PLATE
Activity calls are given as the source filed them. How the calls were made is not given here.
experimental readout: mutagenic call

structure notation: Cl/C=C/Cl
reported measurement: inactive; negative
--
structure notation: Br/C=C/Br
reported measurement: active; positive
--
structure notation: C[N+]1(C)CCOCC1
reported measurement: inactive; negative
--
structure notation: ClC(Cl)C(Cl)Cl
reported measurement: active; positive
--
structure notation: CCC(=O)Nc1ccc(Cl)c(Cl)c1
reported measurement: inactive; negative
--
structure notation: ClC(Cl)(Cl)Br
reported measurement: active; positive
--
structure notation: c1ccc(C(c2ccccc2)c2ccccc2)cc1
reported measurement: inactive; negative

---

- Test system: CCRIS mutagenicity, Ames/micronucleus/aberration tests
- procedure text: CCRIS mutagenicity studies
- assay context: Test System: AMES SALMONELLA TYPHIMURIUM; Strain/Indicator: TA102; Metabolic Activation: NONE; Method: PREINCUBATION
Active and inactive are the calls of the source. No rule for the calls is given here.
Outcomes: active, inactive

molecule: CCCBr
assigned class: inactive

molecule: O=C(O)CC(O)(CC(=O)O)C(=O)O
assigned class: inactive

molecule: N[C@@H](CSCc1ccccc1)C(=O)O
assigned class: inactive

molecule: O=c1[nH]c(=O)n([C@H]2C[C@H](O)[C@@H](CO)O2)cc1CCCCl
assigned class: inactive

molecule: COc1ccc(C=O)cc1OC
assigned class: inactive

molecule: O=c1[nH]c(=O)n([C@H]2C[C@H](O)[C@@H](CO)O2)cc1CCCl
assigned class: inactive

molecule: O=C(O)c1ccccc1
assigned class: inactive

molecule: Cc1c(N)nc([C@H](CC(N)=O)NC[C@H](N)C(N)=O)nc1C(=O)N[C@H](C(=O)N[C@H](C)[C@@H](O)[C@H](C)C(=O)N[C@H](C(=O)NCCc1nc(-c2nc(C(=O)NCCCNCCCN=C(N)CC3CCC(Cl)CC3)cs2)cs1)[C@@H](C)O)[C@@H](O[C@@H]1O[C@@H](CO)[C@@H](O)[C@H](O)[C@@H]1O[C@H]1O[C@H](CO)[C@@H](O)[C@H](OC(N)=O)[C@@H]1O)c1cnc[nH]1 (some centres undefined)
assigned class: active

molecule: Oc1ccc2c(O)cccc2c1
assigned class: active

---

- System: CCRIS mutagenicity, Ames/micronucleus/aberration tests
- procedure text: CCRIS mutagenicity studies
- assay context: Test System: AMES SALMONELLA TYPHIMURIUM; Strain/Indicator: TA100; Metabolic Activation: HAMSTER, LIVER, S-9, AROCLOR 1254 (10%); Method: PREINCUBATION
Calls of active or inactive are those of the source. No rule for the calls is given here.
Classes used: active, inactive

structure notation: CCCCOc1ccc(C=Nc2ccc(CC)cc2)cc1
assigned class: inactive
//
structure notation: Nc1ccc(Cl)cc1N
assigned class: active
//
structure notation: CCCCCCCCCCCCCOC(=O)c1ccccc1C(=O)OCCCCCCCCCCCCC
assigned class: inactive
//
structure notation: OCCCCl
assigned class: inactive
//
structure notation: Cc1c(N=C=O)cccc1N=C=O
assigned class: active
//
structure notation: CC(=O)Nc1ccc(C)cc1
assigned class: inactive
//
structure notation: FC(F)(F)c1ccccc1Cl
assigned class: inactive
//
structure notation: CCN(CC)c1ccc(N=O)c(O)c1
assigned class: inactive
//
structure notation: Cc1cc(-c2cc(C)c(N)c(C)c2)cc(C)c1N
assigned class: inactive
//
structure notation: Nc1ccccn1
assigned class: inactive
//
structure notation: O=C1CCCO1
assigned class: inactive
//
structure notation: CCCCCCCCCCCC[S][Sn]([CH2]CCC)([CH2]CCC)[S]CCCCCCCCCCCC
assigned class: inactive
//
structure notation: COc1ccc(C=O)cc1OC
assigned class: inactive
//
structure notation: CC(=O)/C=C/C1=C(C)CCCC1(C)C
assigned class: inactive
//
structure notation: CCCCNC(=O)n1c(NC(=O)OC)nc2ccccc21
assigned class: inactive

---

- Test system: CCRIS mutagenicity, Ames/micronucleus/aberration tests
- procedure text: CCRIS mutagenicity studies
- assay context: Test System: AMES SALMONELLA TYPHIMURIUM; Strain/Indicator: TA1537; Metabolic Activation: NONE; Method: PREINCUBATION
Active and inactive are the calls of the source. No rule for the calls is given here.
Classes used: active, inactive

molecule: CN1CCC(CN2c3ccccc3Sc3ccccc32)C1 (configuration not stated)
assigned class: inactive
//
molecule: Nc1ccc2c(N)c3ccccc3nc2c1
assigned class: active
//
molecule: C[C@@H]1Cc2c(Cl)cc(C(=O)NC(Cc3ccccc3)C(=O)O)c(O)c2C(=O)O1 (some centres not stated)
assigned class: inactive
//
molecule: CC(=O)OCc1ccc2c(c1)OCO2
assigned class: inactive
//
molecule: [Cl][Fe]([Cl])[Cl]
assigned class: inactive
//
molecule: CN(C)c1ncnc2nc[nH]c12
assigned class: inactive
//
molecule: O=C(OCC(COC(=O)c1ccccc1)(COC(=O)c1ccccc1)COC(=O)c1ccccc1)c1ccccc1
assigned class: inactive
//
molecule: CN(CCO)CCO
assigned class: inactive
//
molecule: CC(C)O
assigned class: inactive
//
molecule: NN
assigned class: inactive
//
molecule: OC1C2(Cl)C3(Cl)C4(Cl)C(Cl)(Cl)C5(Cl)C3(Cl)C1(Cl)C5(Cl)C24Cl (configuration not stated)
assigned class: inactive
//
molecule: CCCCCCCCCC
assigned class: inactive

---

- System: CCRIS mutagenicity, Ames/micronucleus/aberration tests
- procedure text: CCRIS mutagenicity studies
- assay context: Test System: AMES SALMONELLA TYPHIMURIUM; Strain/Indicator: TA1535; Metabolic Activation: HAMSTER, LIVER, S-9, AROCLOR 1254 (10%); Method: PREINCUBATION
Activity calls are given as the source filed them. No rule for the calls is given here.
Outcome codes: active, inactive

molecule: Cl/C=C/Cl
assigned class: inactive

molecule: CCCC(=O)c1cc(O)c(O)cc1O
assigned class: inactive

molecule: CC(=O)/C=C/C1=C(C)CCCC1(C)C
assigned class: inactive

molecule: CCCCCCCCCCCC[S][Sn]([CH2]CCC)([CH2]CCC)[S]CCCCCCCCCCCC
assigned class: inactive

molecule: CCCCCCCCCCCCCCC1CO1 (stereo unspecified)
assigned class: inactive

molecule: Nc1ccccn1
assigned class: inactive

molecule: Nc1ccc(N)c2c1C(=O)c1c(N)ccc(N)c1C2=O
assigned class: active

molecule: CC(C)(c1ccc(OCC2CO2)cc1)c1ccc(OCC2CO2)cc1 (stereo unspecified)
assigned class: active

molecule: Nc1ccc(F)cc1F
assigned class: inactive

molecule: CCCCNC(=O)n1c(NC(=O)OC)nc2ccccc21
assigned class: inactive

molecule: ClCC1CO1 (stereo unspecified)
assigned class: active

molecule: CCCCCCCCCCCOC(=O)c1ccccc1C(=O)OCCCCCCCCCCC
assigned class: inactive

molecule: O=P(OC(CCl)CCl)(OC(CCl)CCl)OC(CCl)CCl
assigned class: active

molecule: FC(F)(F)c1ccccc1Cl
assigned class: inactive

molecule: Nc1ccccc1C(=O)O
assigned class: inactive

molecule: CCCCOc1ccc(C=Nc2ccc(CC)cc2)cc1
assigned class: inactive

molecule: O=S1OCC2C(CO1)C1(Cl)C(Cl)=C(Cl)C2(Cl)C1(Cl)Cl (stereo unspecified)
assigned class: inactive

molecule: COc1ccc(C=O)cc1OC
assigned class: inactive

molecule: Nc1ccn([C@@H]2O[C@H](CO)[C@@H](O)[C@@H]2O)c(=O)n1
assigned class: inactive

molecule: O=C1[O][Bi][O]c2ccccc21
assigned class: inactive

molecule: O=[N+]([O-])c1ccccc1CCl
assigned class: active

molecule: Oc1c(Cl)c(Cl)cc(Cl)c1Cl
assigned class: inactive

molecule: Clc1cccc(C(Cl)(Cl)Cl)n1
assigned class: inactive

molecule: Nc1ccccc1C(=O)OC/C=C/c1ccccc1
assigned class: inactive

molecule: O=Cc1ccccc1Cl
assigned class: inactive

molecule: O=C(O)c1ccc(S(=O)(=O)N(Cl)Cl)cc1
assigned class: inactive

---

- Test system: CCRIS mutagenicity, Ames/micronucleus/aberration tests
- procedure text: CCRIS mutagenicity studies
- assay context: Test System: AMES SALMONELLA TYPHIMURIUM; Strain/Indicator: TA100(NR); Metabolic Activation: NONE; Method: PREINCUBATION
Calls of active or inactive are those of the source. How the calls were made is not given here.
Labels: 1 = active, 0 = inactive

structure notation: CC(=O)Nc1ccc(Oc2ccc(N=O)cc2)cc1
assigned class: 1

structure notation: Nc1ccc([N+](=O)[O-])cc1N
assigned class: 1

structure notation: O=[N+]([O-])c1ccc(Nc2ncnc3nc[nH]c23)cc1
assigned class: 0

structure notation: O=C/C=C/c1ccc([N+](=O)[O-])cc1
assigned class: 0

structure notation: CC(=O)Nc1ccc(Oc2ccc(N(OC(C)=O)C(C)=O)cc2)cc1
assigned class: 1

structure notation: O=[N+]([O-])c1ccc(Br)c([N+](=O)[O-])c1
assigned class: 1

structure notation: Nc1ncnc2nc(-c3ccc([N+](=O)[O-])cc3)[nH]c12
assigned class: 0

structure notation: O=[N+]([O-])c1ccc(CNc2ncnc3nc[nH]c23)cc1
assigned class: 0

structure notation: O=[N+]([O-])c1ccccc1SS/C(Cl)=C(\Cl)C(F)(F)F
assigned class: 1

structure notation: CC(=O)Nc1ccc(Oc2ccc(N(O)C(C)=O)cc2)cc1
assigned class: 1

structure notation: Nc1nc(-c2ccc([N+](=O)[O-])cc2)nc2c1ncn2-c1ccc([N+](=O)[O-])cc1
assigned class: 1

structure notation: N[C@@H](CSc1ccc([N+](=O)[O-])cc1[N+](=O)[O-])C(=O)O
assigned class: 1

structure notation: CC(C)[N+](=O)[O-]
assigned class: 1
